Where these numbers come from: patent US20200079833A1

target: glucagon receptor (GCGR) (human, UniProt P47871 26-477); assay: cell-based or functional assay
Sequence (P47871 26-477): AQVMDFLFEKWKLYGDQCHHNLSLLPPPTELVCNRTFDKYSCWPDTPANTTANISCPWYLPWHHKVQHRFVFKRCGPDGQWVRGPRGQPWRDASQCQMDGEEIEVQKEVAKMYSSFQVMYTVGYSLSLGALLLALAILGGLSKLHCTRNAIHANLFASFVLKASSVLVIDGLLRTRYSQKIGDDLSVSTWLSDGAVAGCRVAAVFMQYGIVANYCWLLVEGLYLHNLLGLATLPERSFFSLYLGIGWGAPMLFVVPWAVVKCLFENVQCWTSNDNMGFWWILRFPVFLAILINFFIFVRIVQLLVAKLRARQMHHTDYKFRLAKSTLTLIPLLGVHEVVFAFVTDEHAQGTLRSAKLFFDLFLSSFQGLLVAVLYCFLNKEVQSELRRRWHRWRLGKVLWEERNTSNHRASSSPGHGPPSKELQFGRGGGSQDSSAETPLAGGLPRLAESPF
Non-standard residues stand in square brackets, D forms with d. Groups on a side chain read outwards from the residue. Primed or numbered codes have the meaning given here. No end group written: not given here. *: point of attachment. Dodecylbenzoate = dodecylbenzoyl lipid group; Stearoyl = CCCCCCCCCCCCCCCCCC(=O)*; αMeF = C[C@](N)(Cc1ccccc1)C(=O)O; αMeK = C[C@](N)(CCCCN)C(=O)O; Lauroyl = CCCCCCCCCCCC(=O)*; αMeS = C[C@](N)(CO)C(=O)O; PEG2′ = not defined here; Aib = CC(C)(N)C(=O)O
property measured: Primary assay EC50 (cAMP), Gluc-R, first run (nM)

{"columns": ["binder", "unit descriptor", "number"],
 "data": [
  ["H[Aib]EGS[αMeF]TSDV[αMeS]S[αMeF]LEGEAA[αMeK]E[αMeF]IA[αMeF]VVK([PEG2′-Lauroyl])GG-NH2 [SEQ ID NO 170]", "nM", 28],
  ["H[Aib]EGS[αMeF]TSDV[αMeS]S[αMeF]LEGEAA[αMeK]E[αMeF]IA[αMeF]VVK([PEG2′-PEG2′-Dodecylbenzoate])GG-NH2 [SEQ ID NO 180]", "nM", 26],
  ["H[Aib]EGS[αMeF]TSDV[αMeS]S[αMeF]LEGEAA[αMeK]E[αMeF]IA[αMeF]VVK([PEG2′-Stearoyl])GG-NH2 [SEQ ID NO 197]", "nM", 27],
  ["H[Aib]EGS[αMeF]TSDV[αMeS]S[αMeF]LEGEAAK([PEG2′-PEG2′-Stearoyl])E[αMeF]IA[αMeF]VV[αMeK]GG-NH2 [SEQ ID NO 153]", "nM", 27],
  ["H[Aib]EGS[αMeF]TSDV[αMeS]S[αMeF]LEGEAAK([PEG2′-Stearoyl])E[αMeF]IA[αMeF]VV[αMeK]GG-NH2 [SEQ ID NO 161]", "nM", 27]
]}
